Tested on: Escherichia coli TOP10
Assay: shrunken log2 fold change of peptide-encoding DNA abundance (4.5 h post-induction vs induction); higher = less antimicrobial activity (less host growth inhibition)
Conditions: time post-induction: 4.5 h; library: site-saturation at positions 5, 18, 19, 20
Quick list: shrunken log2 fold change per entry.

>  <RESIDUE_SEQUENCE>
RRIRTRPPRLPRPRPRPFSPPRP

>  <SYSTEM_NAME>
Escherichia coli TOP10

>  <shrunken log2 fold change>
-0.375

$$$$
>  <RESIDUE_SEQUENCE>
RRIRVRPPRLPRPRPRPHPIPRP

>  <SYSTEM_NAME>
Escherichia coli TOP10

>  <shrunken log2 fold change>
-0.0473

$$$$
>  <RESIDUE_SEQUENCE>
RRIRMRPPRLPRPRPRPDSVPRP

>  <SYSTEM_NAME>
Escherichia coli TOP10

>  <shrunken log2 fold change>
-0.045

$$$$
>  <RESIDUE_SEQUENCE>
RRIRTRPPRLPRPRPRPVMHPRP

>  <SYSTEM_NAME>
Escherichia coli TOP10

>  <shrunken log2 fold change>
0.102

$$$$
>  <RESIDUE_SEQUENCE>
RRIRSRPPRLPRPRPRPNEFPRP

>  <SYSTEM_NAME>
Escherichia coli TOP10

>  <shrunken log2 fold change>
0.00763

$$$$
>  <RESIDUE_SEQUENCE>
RRIRIRPPRLPRPRPRPMDCPRP

>  <SYSTEM_NAME>
Escherichia coli TOP10

>  <shrunken log2 fold change>
-0.115

$$$$
>  <RESIDUE_SEQUENCE>
RRIRYRPPRLPRPRPRPRVKPRP

>  <SYSTEM_NAME>
Escherichia coli TOP10

>  <shrunken log2 fold change>
0.0364

$$$$
>  <RESIDUE_SEQUENCE>
RRIRARPPRLPRPRPRPVPHPRP

>  <SYSTEM_NAME>
Escherichia coli TOP10

>  <shrunken log2 fold change>
0.0133

$$$$

Request: Value lookup for shrunken log2 fold change; key = RRIRCRPPRLPRPRPRPMCRPRP
Result: -0.274

Request: Again, but for RRIRIRPPRLPRPRPRPPWTPRP
Result: 0.0205

Request: Moving on to RRIRGRPPRLPRPRPRPRNCPRP
Result: 0.0949

Request: And then RRIRHRPPRLPRPRPRPTHAPRP , what is it?
Result: 0.233

Request: What about this sequence? RRIRKRPPRLPRPRPRPKKWPRP
Result: 0.406

Request: Now the same for RRIRWRPPRLPRPRPRPKSPPRP
Result: 0.819

Request: Also need RRIRGRPPRLPRPRPRPCQHPRP , thanks.
Result: -0.153

====

Test system: Escherichia coli TOP10
Experiment: shrunken log2 fold change of peptide-encoding DNA abundance (4.5 h post-induction vs induction); higher = less antimicrobial activity (less host growth inhibition)
Conditions: time post-induction: 4.5 h; library: site-saturation at positions 5, 18, 19, 20
Listing of entries alongside the reported shrunken log2 fold change.
In your answer, state the number alone without any accompanying words.

In the examples that follow, each entry is paired with its recorded shrunken log2 fold change.
>  <RESIDUE_SEQUENCE>
RRIRGRPPRLPRPRPRPWGWPRP

>  <shrunken log2 fold change>
1.15

$$$$
>  <RESIDUE_SEQUENCE>
RRIRSRPPRLPRPRPRPLRIPRP

>  <shrunken log2 fold change>
-0.0455

$$$$

Request: Would you kindly share the measured shrunken log2 fold change for RRIRNRPPRLPRPRPRPAIWPRP ?
Result: 0.13

Request: Okay, and RRIRQRPPRLPRPRPRPDHYPRP ?
Result: -0.213

Request: Now try RRIRTRPPRLPRPRPRPYASPRP .
Result: -0.255

Request: Next sequence: RRIRLRPPRLPRPRPRPCHMPRP
Result: -0.0107

Request: Same thing, different sequence: RRIRSRPPRLPRPRPRPQRHPRP
Result: 0.141

Request: What would you report for RRIRYRPPRLPRPRPRPDCFPRP ?
Result: -0.0906

Request: RRIRYRPPRLPRPRPRPPCFPRP
Result: -0.242

Request: RRIRNRPPRLPRPRPRPAMYPRP ?
Result: -0.112

Request: Field entry: RRIRMRPPRLPRPRPRPWADPRP
Result: -0.108

Request: Moving on to the next sequence: RRIRTRPPRLPRPRPRPNFCPRP
Result: -0.126

Request: Another sequence: RRIRERPPRLPRPRPRPFGSPRP
Result: 0.0942

Request: Same thing, different sequence: RRIRDRPPRLPRPRPRPYNQPRP
Result: -0.135

Request: RRIRNRPPRLPRPRPRPPLVPRP
Result: 0.089

Request: Now consider RRIRYRPPRLPRPRPRPKTWPRP .
Result: -0.132

Request: Can you handle RRIRLRPPRLPRPRPRPPTWPRP next?
Result: 0.169

Request: Now the sequence RRIRMRPPRLPRPRPRPIIPPRP
Result: 0.000609

====

Tested on: Escherichia coli TOP10
Test: shrunken log2 fold change of peptide-encoding DNA abundance (4.5 h post-induction vs induction); higher = less antimicrobial activity (less host growth inhibition)
Settings: time post-induction: 4.5 h; library: site-saturation at positions 5, 18, 19, 20
Returns 1.0 if the recorded shrunken log2 fold change is greater than or equal to -0.08, and 0.0 otherwise.

>  <RESIDUE_SEQUENCE>
RRIRERPPRLPRPRPRPRADPRP

>  <SYSTEM_NAME>
Escherichia coli TOP10

>  <CATEGORY_LABEL>
1.0

$$$$

Request: Could you tell me if the measured shrunken log2 fold change of RRIRCRPPRLPRPRPRPLGIPRP reaches -0.08 or more?
Result: 0.0

Request: RRIRYRPPRLPRPRPRPCELPRP ?
Result: 1.0

Request: Next up: RRIRRRPPRLPRPRPRPYKYPRP
Result: 0.0

Request: Input RRIRTRPPRLPRPRPRPLWTPRP
Result: 0.0

Request: Please do the same for RRIRFRPPRLPRPRPRPNSEPRP as well.
Result: 0.0

Request: Try this sequence next: RRIRQRPPRLPRPRPRPAIWPRP
Result: 0.0

Request: Follow-up item: RRIRIRPPRLPRPRPRPAKAPRP
Result: 1.0

Request: Also RRIRSRPPRLPRPRPRPYLRPRP , if possible.
Result: 1.0

Request: Thanks! And RRIRHRPPRLPRPRPRPACSPRP ?
Result: 0.0

Request: Lookup RRIRNRPPRLPRPRPRPRMWPRP
Result: 1.0

Request: What about RRIRERPPRLPRPRPRPEVLPRP ?
Result: 1.0

Request: Can you handle RRIRIRPPRLPRPRPRPHGLPRP next?
Result: 1.0

Request: Now try RRIRTRPPRLPRPRPRPQSAPRP .
Result: 1.0

====

Test system: Escherichia coli TOP10
Experiment: shrunken log2 fold change of peptide-encoding DNA abundance (4.5 h post-induction vs induction); higher = less antimicrobial activity (less host growth inhibition)
Settings: time post-induction: 4.5 h; library: site-saturation at positions 5, 18, 19, 20
shrunken log2 fold change values for the sequences below.
// print number alone

>  <RESIDUE_SEQUENCE>
RRIRARPPRLPRPRPRPFTIPRP

>  <shrunken log2 fold change>
-0.142

$$$$
>  <RESIDUE_SEQUENCE>
RRIRLRPPRLPRPRPRPICIPRP

>  <shrunken log2 fold change>
-0.579

$$$$
>  <RESIDUE_SEQUENCE>
RRIRERPPRLPRPRPRPNWGPRP

>  <shrunken log2 fold change>
0.00892

$$$$
>  <RESIDUE_SEQUENCE>
RRIRDRPPRLPRPRPRPMPFPRP

>  <shrunken log2 fold change>
0.00571

$$$$
>  <RESIDUE_SEQUENCE>
RRIRQRPPRLPRPRPRPWYHPRP

>  <shrunken log2 fold change>
-0.32

$$$$
>  <RESIDUE_SEQUENCE>
RRIRPRPPRLPRPRPRPCLHPRP

>  <shrunken log2 fold change>
-0.248

$$$$

Request: Notebook entry, Escherichia coli TOP10 assay: shrunken log2 fold change of RRIRLRPPRLPRPRPRPSPNPRP = ?
Result: -0.183

Request: Another sequence to check: RRIRKRPPRLPRPRPRPKCSPRP
Result: 0.00677

Request: Lookup RRIRARPPRLPRPRPRPARDPRP
Result: 0.298

Request: Again, but for RRIRMRPPRLPRPRPRPQPLPRP
Result: 0.224

====

System: Escherichia coli TOP10;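 note: peptides expressed intracellularly from a pBAD plasmid library in pooled LB shake-flask culture, induced with 0.3% L-arabinose, DNA abundance read by NGS, three biological replicates, DESeq2 with apeglm shrinkage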
Experiment: shrunken log2 fold change of peptide-encoding DNA abundance (4.5 h post-induction vs induction); higher = less antimicrobial activity (less host growth inhibition)
Details: time post-induction: 4.5 h; library: site-saturation at positions 5, 18, 19, 20
Values of shrunken log2 fold change greater than or equal to -0.1 map to rule met; values below map to rule not met.

Some solved cases for reference:
>  <RESIDUE_SEQUENCE>
RRIRIRPPRLPRPRPRPNPFPRP

>  <CATEGORY_LABEL>
rule not met

$$$$
>  <RESIDUE_SEQUENCE>
RRIRMRPPRLPRPRPRPQHYPRP

>  <CATEGORY_LABEL>
rule not met

$$$$
>  <RESIDUE_SEQUENCE>
RRIRERPPRLPRPRPRPIWWPRP

>  <CATEGORY_LABEL>
rule met

$$$$
>  <RESIDUE_SEQUENCE>
RRIRARPPRLPRPRPRPDKWPRP

>  <CATEGORY_LABEL>
rule met

$$$$
>  <RESIDUE_SEQUENCE>
RRIRARPPRLPRPRPRPMCTPRP

>  <CATEGORY_LABEL>
rule met

$$$$

Request: Is shrunken log2 fold change for RRIRYRPPRLPRPRPRPINYPRP at or above -0.1?
Result: rule not met

Request: Now the same for RRIRLRPPRLPRPRPRPMDRPRP
Result: rule met

Request: Ok, now RRIRTRPPRLPRPRPRPGEPPRP
Result: rule met

Request: Follow-up item: RRIRARPPRLPRPRPRPEHMPRP
Result: rule met

Request: Now give it for RRIRQRPPRLPRPRPRPYIVPRP too.
Result: rule met

Request: Let us now turn to RRIRHRPPRLPRPRPRPKWAPRP
Result: rule met

Request: Param item: RRIRCRPPRLPRPRPRPQLLPRP
Result: rule not met

Request: Next sequence up: RRIRTRPPRLPRPRPRPHQVPRP
Result: rule met

Request: Another sequence to look at: RRIRDRPPRLPRPRPRPAGHPRP
Result: rule met
